Origin of measurements: patent US9133104B2

# target or system: histone deacetylase activity (HeLa nuclear extract)
# Construct: Histone deacetylase activity from crude nuclear extract derived from HeLa cells was used for screening
# protocol details: HDAC fluorescent activity assay (Biomol Fluor de Lys), HeLa nuclear extract
# condition context: Fluor de Lys substrate, IC50 range
pIC50: −log10 of the molar value.
measured quantity: pIC50

Below are worked cases with known answers.
INSERT INTO results (compound_string, result) VALUES
  ('O=C(CCCCCCC(=O)Nc1ccc(CN[C@@H](Cc2ccccc2)C(=O)OC2CCCC2)cc1)NO', '6.00 to 7.00'),
  ('O=C(CCCCCCNC(=O)c1cc2cc(CCC(=O)N[C@@H](Cc3ccccc3)C(=O)O)ccc2[nH]1)NO', '> 7.00'),
  ('O=C(CCCCCCC(=O)N1Cc2[nH]c3ccccc3c2C[C@H]1C(=O)N[C@@H](Cc1ccccc1)C(=O)O)NO', '6.00 to 7.00');

Lookup: Please look up its pIC50: CCOC(=O)[C@@H](NC(=O)[C@@H]1Cc2ccccc2CN1C(=O)CCCCCCC(=O)NO)c1ccccc1
Found: < 6.00

---

This section presents compounds with their documented IC50 values.
# target or system: histone deacetylase activity (HeLa nuclear extract)
# Construct: Histone deacetylase activity from crude nuclear extract derived from HeLa cells was used for screening
# protocol details: HDAC fluorescent activity assay (Biomol Fluor de Lys), HeLa nuclear extract
# condition context: Fluor de Lys substrate, IC50 range

As a guide, the following entries are already answered.
INSERT INTO results (compound, measured_quantity, result) VALUES
  ('O=C(CCCCCCC(=O)N1CCc2c([nH]c3ccccc23)C1CN[C@H](C(=O)OC1CCCC1)c1ccccc1)NO (stereo partly shown)', 'IC50', '> 1 µM'),
  ('O=C(CCCCCCC(=O)Nc1cccc(CN[C@H](C(=O)O)c2ccccc2)c1)NO', 'IC50', '0.101 to 1 µM'),
  ('O=C(NO)c1cc2ccc(CNCc3ccc(CN[C@H](C(=O)OC4CCCC4)c4ccccc4)cc3)cc2s1', 'IC50', '0.101 to 1 µM');

Lookup: Returns the measured IC50 for the input compound. Input: O=C(CCCCCCC(=O)Nc1cccc(OCCCN[C@@H](Cc2ccccc2)C(=O)O)c1)NO
Found: < 0.1 µM

---

# target or system: histone deacetylase activity (HeLa nuclear extract)
# Construct: Histone deacetylase activity from crude nuclear extract derived from HeLa cells was used for screening
# protocol details: HDAC fluorescent activity assay (Biomol Fluor de Lys), HeLa nuclear extract
# Assay type: biochemical
# condition context: Fluor de Lys substrate, IC50 range
measured quantity: IC50

Examples from the recorded data:
INSERT INTO measurements (molecule, measured_quantity, result) VALUES
  ('O=C(CCCCCCC(=O)N1CCCC1C(=O)N[C@H](C(=O)O)c1ccccc1)NO (some centres unmarked)', 'IC50', '> 1 µM'),
  ('O=C(CCCCCCC(=O)Nc1cncc(CN[C@@H](Cc2ccccc2)C(=O)O)c1)NO', 'IC50', '0.101 to 1 µM'),
  ('COc1ccc2[nH]c3c(c2c1)CCN(C(=O)CCCCCCC(=O)NO)C3C(=O)N[C@H](C(=O)O)c1ccccc1 (some centres unmarked) [Compound 14]', 'IC50', '0.101 to 1 µM'),
  ('O=C(CCCCCCC(=O)N1CCc2c([nH]c3ccc(OCC(=O)N[C@H](C(=O)O)c4ccccc4)cc23)C1)NO', 'IC50', '0.101 to 1 µM'),
  ('CC(C)(C)OC(=O)[C@@H](NCc1cccc(NC(=O)CCCCCCC(=O)NO)c1)c1ccccc1', 'IC50', '0.101 to 1 µM'),
  ('O=C(NO)c1cc2ccc(CNCc3ccc(CN[C@@H](Cc4ccccc4)C(=O)OC4CCCC4)cc3)cc2s1', 'IC50', '0.101 to 1 µM');

Lookup: # IC50 lookup, item O=C(CCCCCCC(=O)N1CCc2c([nH]c3ccccc23)C1C(=O)N[C@H](C(=O)O)c1ccccc1)NO (some centres unmarked)
Found: < 0.1 µM

Lookup: Fill in the blank: the reported IC50 of CC(C)(C)[C@H](NCc1ccc(CNCc2ccc3cc(C(=O)NO)sc3c2)cc1)C(=O)OC1CCCC1 is ____.
Found: 0.101 to 1 µM

Lookup: Need IC50, item CC(C)(C)OC[C@H](NCc1ccc(NCc2ccc3cc(C(=O)NO)sc3c2)cc1)C(=O)OC1CCCC1
Found: 0.101 to 1 µM

Lookup: Report IC50 for CCOC(=O)[C@H](CCc1ccccc1)NCc1cccc(NC(=O)CCCCCCC(=O)NO)c1 please.
Found: 0.101 to 1 µM

Lookup: Field request: IC50 | item: O=C(CCCCCCC(=O)Nc1ccc(CN[C@H](C(=O)O)C2CCCCC2)cc1)NO
Found: < 0.1 µM
